Assay: yeast display, Sf9 membrane polyspecificity reagent, FACS + sequencing; frameworks hold sequencing errors
measurement-label: polyreactivity (PSR sort gate)

Before answering, review these 6 worked examples.
QVQLVESVGGLVQAGGSLRLSCAASGFIFGSNAIGWYRQAPGKERELVAAITYSGASTYYADSVKGRFTISRDNAKNTVYLQMNRLKPEDTAVYYCATRYSVFVSGRFNYWGQGTQVTVSS = low polyreactivity
QDHLVESGGCLVQAGGSLRLSCSASGRIFRYYAMGWYRHAPGKERELVAAIRNGGSTYYADSVKGRFTISRDNAKNTVYLQMNSLKPEDTAVYYCAAGYNYVSHRCGDWGQGSQVTVSS = high polyreactivity
QVQLVESGGGLVQAGGSLRLSCAASGLTFRRYAMGWYRQAPGKERELVAAISSSGGNTYYADSVKGRFTISRDNAKNTVYLQMNSLQPEDTAVYYCATRYKSPSFDYWGQGTQVTVSS = high polyreactivity
QVQLVESGGGLVQAGGSLRLSCAASGRIFHYNAMGWYRQAPGKERELVARITWTGGSTYYADSVKGRFTISRDNAKNTVYLQMNSLKPEDNAVYYCAAKWSYTKGRYYYWGQGTQVTVSS = high polyreactivity
QVQLVESGGGLVQAGGSLRLSCAASGRIFGVYAMGWYRQAPGKERELVAAITSSGGRTYYADSVKGRFTISRDNAKNTVYLQMNSLKPEDTAVYYCAALGWSRRGKFNYWGQGTQVTVSS = high polyreactivity
QVQLVESGGGLVQAGGSLRLSCAASGSTFYRYAMGWYRQAPGNERELVAVLRYTSGRTYYADSVKGRFTISRDNAKYTVYLQMNSLKREDTAVYYCATDPYGTRGTDSRYNYWGQGIQVTVSS = high polyreactivity

Sample `QVQLVESGGGLVQAGGSLRLSCAASGSTLVSNAMGWYRQAPGKERELVASISYSATSTYYADSVKGRFTISRDNAKNTVYLQMNSLKPEDTAVYYCAAKTFRSRYYYWGQGTQVTVSS` — what was its polyreactivity (PSR sort gate)?
high polyreactivity

So what does the record say about polyreactivity (PSR sort gate) for `QVQLQESGGGLVQAGGSLRLSCAASGNISVTGFMGWYRQATGKERELVASIGIGGTTYYADSVKGRFSISRDNAKNTVYLQMNSLKPEDTAVYYCAARYLYYAYSYWGQGTQVTVSS` ?
low polyreactivity

* * *

Experiment: yeast display, Sf9 membrane polyspecificity reagent, FACS + sequencing; frameworks hold sequencing errors
measurement-label: polyreactivity (PSR sort gate)

QVQLVESGGGLVQAGGSLRLSCAASGSTFPGYAMGWYRQAPGKERELVAAGGSTYYADSVKGRFTISRDNAKNTVYLEMNCLKPEETAVYYCAATWGSVQKGTYYYWGQGTQVTVSS = low polyreactivity
QVQLVESGGGLVQAGGSLRVSCAASGRTFRYYDMGWYRQAPGKEREFVAAITWRGGSTYYADSVKGRFTISRDNAKNTVYLQMNSLKPEDTAVYYCAADPFDDQLQYDYWGQGTQVTVSS = low polyreactivity
QVQLVESGGGLVQAGGSLRLSCAASGITFYDNAMGWYRPAPGKEWELVAGISYDGDSTYADSVKGRFTISRDNAKNTVYLQINSLKPEDTAVYYCAALGPYDWLWAGDYWGQGTQVTVSS = low polyreactivity

* * *

Assay: yeast display, Sf9 membrane polyspecificity reagent, FACS + sequencing; frameworks hold sequencing errors
measurement-label: polyreactivity (PSR sort gate)

QVQLVESGGGLVQAGGSLRLSCAASGNILGSYAMGWYRQAPWKQRELVAAITWSGGTTYYADSVKGRFTISCDNAKNTVYLQMNSLKPEDTAVYYCAVEIVLTRFDYWGQGTQVTVSS = low polyreactivity
QVQLVESGGGLVQAGGSLRLSCAASGSIFSENTMGWYRQAPGKKRELVADITSGGSTNYADSVKGRFTISRDNAKNTVYLQMNSLKPEDTAVYYCAADYNGEYDYWGQGTQVTVSS = low polyreactivity
QVQLVESGGGLVQAGGSLRLSCAASGRTISRNTMGWYRQAPGKERELVAGITYGGDRTYYADSVKGRFTISRDNAKNTVYLQMNSLKPEDTAVYYCAAPWYWKGLRDYWGQGTQVNVSS = low polyreactivity

* * *

Test: yeast display, Sf9 membrane polyspecificity reagent, FACS + sequencing; frameworks hold sequencing errors
measurement-label: polyreactivity (PSR sort gate)

These solved cases illustrate the format of a correct answer.
QVQLVESGGGLVQAGGSLRLSCAASGFIFSRYAMGWYRQAAGKERELVAAISYSGSSTYYADSVKGRFTISRDNAKNTVFLQMNSLKPEDTGVYYCNAVTQITGSSDGDYWGQGTQVTVSS = high polyreactivity
QVQLVESGGGLVQAGGSLRLSCAASGSTFPYYTMGWYRQAPGKERELVAAICGRGTSTYYADSVKGRFTISRDNAKNTVYLQMISLKPEDTAVYYCAARRADVQPYSPVYAYGAYDYWGQGTQVTVSS = high polyreactivity
QVQLVESRGGLVQAGGSLRLSCAASGYIFSYNAMGCYRQAPGKERELVAATSSRGGSTYYADSVKGRFTISRDNAKNPDYLQMNSLKPEDTAVYFCAVSSRRVDTEPYDYWGQGTQVTVSS = high polyreactivity
QVQLVESGGGLVQAGGSLRLSGAASGSTCYYGMGWYRQAPGKYRELVAAISSRGGTPYYADSVKGRFTISRDNAKNTVYLQMTSLKPEDTAVDDCAAPVPYYVPRRNEGDYWGQGTQGTVSS = low polyreactivity
QVQLVESGGGLVQAGGSLRLSCAASGSTFWVNALGWSRQAPGKERELVAVITVTGSRTYYADSVKGRFTISRDNAKNTVYLQMNTLKPEDTAVYYCAADRRRVQYKFDYWGQGTQVTVSS = low polyreactivity
QVQLVESGGGLVQAGGSLRLSCAASGRTYHGYAMGWYRQAPGKERELVARINWSDGRTYYADSVKGRFTISRDNAKNTVYLQMNSLKPEDTAVYYCAADKTVSYAPAWYYYWGQGTQVNVSS = low polyreactivity
QVQLVESGGGLVQAGGSLRLSCAASGSIFAVYAMRCYRQAPAKARELVATITGIDTGTYYADSVKGRCTISRDIAKNTVYLHMNILKPEDTAVYYCAAVCRYRHLRFYYWGQGTQGTVSS = high polyreactivity
QVQLVESGGGLVQAGGSLPLSCAASRRTLYTNTMGWYRQAPGKESELDAGISKRGGSTYYADSVKGRFTITRDTAKNTVYLQMNSRKPEDTAVYYCNAPVSYWSRFRSPIYEYWGQGTQVTVSS = high polyreactivity

Now, please, on to the next sequence.
Any idea what polyreactivity (PSR sort gate) was measured for `QVQLVESGGGLVQAGGSLRLSCAASGSIFPWYTMGWYRQAPGKEREFVASISSSASDTYYADSVKGRFTISRDNAKNTVYLQMNSLKPEDTAVYYCAARAYYRYWHGNYRHYSFDYWGQGTQVTVSS` ?
high polyreactivity

* * *

Assay: yeast display, Sf9 membrane polyspecificity reagent, FACS + sequencing; frameworks hold sequencing errors
measurement-label: polyreactivity (PSR sort gate)

QVQLVESGGGLVQAGGSLRLSCAASGRTFGYNAMGWYRQAPGKERELVATITWNGGRTYYADSVKGRFTISRDNAKNTVYLQMNSLKPEDTAVYYCAKGYPIIGRHGHWGQGTQVTVSS = high polyreactivity
QVQLVESGGGLVQAGGSLRLSCAASGSTIRYNAMGWYRQAPGKERELVAAISRSGGSTYYADSVKGRFTISRDNAKNTVYLQRTSLKTEDTAVYYCAADRGARGDYWGQGTQVTVSS = high polyreactivity

* * *

Test: yeast display, Sf9 membrane polyspecificity reagent, FACS + sequencing; frameworks hold sequencing errors
measurement-label: polyreactivity (PSR sort gate)

QVQLVESGGGLVQAGGSLRLSCAASGFTFTYYTMGWYRQAPGKERELVAAISYSGGSTYYADSVKGRFTISRDNAKNTVYLQMNSLKPEDTAVYYCNAVTSWAGSLDYWGQGTQVTVSS = high polyreactivity
QVQLVESGGGLVQAGGSLRLSCAASGGTFRYNAMGWYRQAPGKERELVAAISRSGGSTHYADSVKGRFTISRDNAKNTVYLQMNSLKPEDTAVYYCAATVTFVPSRAGFYKYNYWGQGTQVTVSS = high polyreactivity
QVQLVESGGGLVQAGGSLRLSCAASGRIFRKNVMGWYRQAPGKERELVAAIRWSGGGTYYADSVKGRFTISRDNAKNTVYLQMNSLKPEDTAVYYCAAVPTSSAYDYWGQGTQVTVSS = high polyreactivity
